target: Pol IV (E. coli DNA polymerase IV, DinB) (Escherichia coli, UniProt Q47155, T120P); construct: full-length, untagged as far as told, pET11a plasmid pRM112 (T7 promoter) and mutant derivatives, purified from E. coli; 351 residues; assay: pre-steady-state single-nucleotide primer extension, […] gel assay; type: biochemical; settings: apparent Kd for dNTP; kpol given as kcat; undamaged template 13/20G (opposite dG); 200 nM DNA, 400 nM polymerase, 10 mM MgCl2, pH 7.5, 25°C
Sequence (Q47155 whole entry T120P): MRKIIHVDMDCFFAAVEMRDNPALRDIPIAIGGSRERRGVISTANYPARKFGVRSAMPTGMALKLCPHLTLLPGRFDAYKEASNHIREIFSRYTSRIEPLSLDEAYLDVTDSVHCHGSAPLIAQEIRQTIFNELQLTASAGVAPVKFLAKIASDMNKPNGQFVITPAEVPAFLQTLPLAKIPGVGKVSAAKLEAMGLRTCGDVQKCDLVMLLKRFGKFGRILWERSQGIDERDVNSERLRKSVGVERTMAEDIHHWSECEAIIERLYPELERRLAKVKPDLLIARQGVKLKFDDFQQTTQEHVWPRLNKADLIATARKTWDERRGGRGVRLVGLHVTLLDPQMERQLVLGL
Readout: Kd
Please give the number followed by its unit.

So, Nc1ccn([C@H]2C[C@H](O)[C@@H](COP(=O)(O)OP(=O)(O)OP(=O)(O)O)O2)c(=O)n1 [dCTP] ? Its Kd was 14 µM
